Every entry's value here was drawn from PubChem BioAssay.

# Study target: NADPH oxidase 4 (Homo sapiens) (UniProt Q9NPH5)
# Sequence (Q9NPH5 whole entry, looked up): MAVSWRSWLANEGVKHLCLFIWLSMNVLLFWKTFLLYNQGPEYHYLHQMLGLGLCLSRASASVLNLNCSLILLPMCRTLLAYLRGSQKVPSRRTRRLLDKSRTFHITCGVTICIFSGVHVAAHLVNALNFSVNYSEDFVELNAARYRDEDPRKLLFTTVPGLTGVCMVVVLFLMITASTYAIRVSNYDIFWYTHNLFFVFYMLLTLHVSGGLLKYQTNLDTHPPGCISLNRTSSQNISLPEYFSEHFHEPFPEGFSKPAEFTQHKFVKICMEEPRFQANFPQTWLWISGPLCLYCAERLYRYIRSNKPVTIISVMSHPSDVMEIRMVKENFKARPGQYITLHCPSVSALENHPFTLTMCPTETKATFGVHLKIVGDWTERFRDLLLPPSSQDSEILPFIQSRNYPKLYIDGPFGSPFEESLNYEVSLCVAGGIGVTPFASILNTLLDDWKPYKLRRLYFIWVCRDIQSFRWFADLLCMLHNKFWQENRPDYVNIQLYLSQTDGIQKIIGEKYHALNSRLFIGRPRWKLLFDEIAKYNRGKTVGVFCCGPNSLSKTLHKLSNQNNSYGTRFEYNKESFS
# Experiment summary: NOX4-dependent H2O2 signal modulators, primary screen, NOX inhibitor project, cell-based, HEK293-NOX4, tetracycline-induced, Amplex Red fluorescence (AID 1160)
# Condition description: 45 min, higher = more signal, called active from +8 up or from −8 down
# if value of z-score reaches 0.06, tag Y; if it stays below, tag N

| Molecule | Study target | Label class |
| --- | --- | --- |
| Cc1ccc(S(=O)(=O)OC[C@H]2CN3[C@H](c4ccc(Br)cc4)[C@@H](C)CC[C@H]3C(=O)O2)cc1 | NADPH oxidase 4 (Homo sapiens) (UniProt Q9NPH5) | Y |
| CC(C)=CCCC(C)=CCON=C1C[C@@H](O)[C@@H](O)[C@@H]2[C@@H]3C(=O)N(C(C)(C)C)C(=O)[C@@H]3CC[C@@H]12 | NADPH oxidase 4 (Homo sapiens) (UniProt Q9NPH5) | N |
| CC(C)CON=C1C[C@@H](O)[C@@H](O)[C@@H]2[C@@H]3C(=O)N(c4cccc(Oc5ccccc5)c4)C(=O)[C@@H]3CC[C@@H]12 | NADPH oxidase 4 (Homo sapiens) (UniProt Q9NPH5) | Y |
| CCOC(=O)[C@H](Cc1ccccc1)NC(=O)CCC1CC(OC(=O)NCc2cccc3ccccc23)CC2(CCCC(COC(=O)NCCC(C)C)O2)O1 (some centres undefined) | NADPH oxidase 4 (Homo sapiens) (UniProt Q9NPH5) | Y |
| CCOC(=O)[C@H](CC(C)C)NC(=O)CCC1CC(OC(=O)NCCc2ccc(F)cc2)CC2(CCCC(COC(=O)NCC3CCCCC3)O2)O1 (some centres undefined) | NADPH oxidase 4 (Homo sapiens) (UniProt Q9NPH5) | Y |
| C=CC[C@@H]1C=C[C@H](ON=C2[C@H]3CCn4c(=O)n(-c5ccccc5)c(=O)n4[C@H]3[C@H](O)[C@@H]3O[C@H]23)[C@@H](CO)O1 | NADPH oxidase 4 (Homo sapiens) (UniProt Q9NPH5) | Y |
| CC(C)=CCCC(C)=CCON=C1C[C@@H](O)[C@@H](O)[C@@H]2[C@@H]3C(=O)N(Cc4ccccc4)C(=O)[C@@H]3CC[C@@H]12 | NADPH oxidase 4 (Homo sapiens) (UniProt Q9NPH5) | Y |
| COC(=O)[C@@H]1CC[C@@H](C)[C@H](c2ccc(Br)cc2)N1 | NADPH oxidase 4 (Homo sapiens) (UniProt Q9NPH5) | N |
| CCO[C@H](c1cc(OC)cc([N+](=O)[O-])c1OC)[C@H](C)C=CCC(=O)OC | NADPH oxidase 4 (Homo sapiens) (UniProt Q9NPH5) | Y |
| CO[C@@H]1COC(=O)[C@@H](C)NC(=O)CC=C[C@@H](C)[C@H](NS(=O)(=O)c2ccc(C)cc2)COC(=O)[C@H](C)NC(=O)CC=C[C@H]1C | NADPH oxidase 4 (Homo sapiens) (UniProt Q9NPH5) | Y |
| CC(CCN1CCCCc2nc(C)c(C)cc21)=NO[C@@H](C)c1cn([C@H](CO)Cc2ccccc2)nn1 | NADPH oxidase 4 (Homo sapiens) (UniProt Q9NPH5) | N |
| CCC=CCCC(OC(=O)c1ccc(Br)cc1)C1=CCCCC1=O (centres undefined) | NADPH oxidase 4 (Homo sapiens) (UniProt Q9NPH5) | N |
| CCc1cc2c(nc1CC)CCN(CCC(C)=NO[C@H](C)c1cn([C@@H]3COC[C@H]3O)nn1)C2 | NADPH oxidase 4 (Homo sapiens) (UniProt Q9NPH5) | N |
| COC(=O)CC=C[C@@H](C)[C@@H](C=NOCC[C@@H]1C=C[C@H](OC(C)=O)[C@@H](COC(C)=O)O1)OC | NADPH oxidase 4 (Homo sapiens) (UniProt Q9NPH5) | Y |
| CCOC(=O)[C@H](Cc1ccccc1)NC(=O)CCC1CC(OC(=O)NCCc2ccc(F)cc2)CC2(CCCC(COC(=O)NCC3CCCCC3)O2)O1 (some centres undefined) | NADPH oxidase 4 (Homo sapiens) (UniProt Q9NPH5) | Y |
| CC(=O)OC[C@H]1O[C@H](CCON=C2[C@H]3CCn4c(=O)n(-c5ccccc5)c(=O)n4[C@H]3[C@H](O)[C@@H]3O[C@H]23)C=C[C@@H]1OC(C)=O | NADPH oxidase 4 (Homo sapiens) (UniProt Q9NPH5) | Y |
| Cc1ccc(S(=O)(=O)NC(CCc2ccccc2)CC(=O)C(C)(C)C)cc1 (centres undefined) | NADPH oxidase 4 (Homo sapiens) (UniProt Q9NPH5) | Y |
| O=C1[C@H]2[C@H]3[C@H](O)[C@H](O)CC(=NOC[C@@H](O)COCc4ccco4)[C@@H]3CC[C@H]2C(=O)N1C[C@@H]1CCCO1 | NADPH oxidase 4 (Homo sapiens) (UniProt Q9NPH5) | Y |
| CO[C@@H]1COC(=O)[C@H](CCSC)NC(=O)CC=C[C@@H](C)COC(=O)[C@H](C)NC(=O)CC=C[C@H]1C | NADPH oxidase 4 (Homo sapiens) (UniProt Q9NPH5) | N |

====

# Study target: NADPH oxidase 4 (Homo sapiens) (UniProt Q9NPH5)
# Experiment summary: NOX4-dependent H2O2 signal modulators, primary screen, NOX inhibitor project, cell-based, HEK293-NOX4, tetracycline-induced, Amplex Red fluorescence (AID 1160)
# Condition description: 45 min, higher = more signal, called active from +8 up or from −8 down
Activity calls are given as the source filed them.

| Compound | z-score |
| --- | --- |
| CCOC(=O)C1=NO[C@@]2(C=C(Br)C3(OCCCO3)[C@H]3O[C@H]32)C1 | -0.373 (inactive) |
| COC(=O)[C@H](C)NC(=O)CCC1CC(OC(=O)NCc2ccc3c(c2)OCO3)CC2(CCCC(COC(=O)NCC(c3ccccc3)c3ccccc3)O2)O1 (stereo not given in full) | -1.5 (inactive) |
| COC(=O)CC=C[C@@H](C)[C@@H](C=NOC[C@@H](O)[C@H]1O[C@@H]2OC(C)(C)O[C@@H]2[C@H]1O)NS(=O)(=O)c1ccc(C)cc1 | 0.171 (inactive) |
| CC(C)(C)N1C(=O)[C@H]2[C@H]3[C@H](O)[C@H](O)CC(=O)[C@H]3CC[C@H]2C1=O | -1.36 (inactive) |
| CCCNC(=O)OC[C@H]1O[C@H](CCON=Cc2ccc(C(=O)N3[C@H](c4ccc(C)cc4)[C@@H](C)CC[C@H]3C(=O)OC)cc2)C=C[C@@H]1Oc1ccc(OC)cc1 | 0.611 (inactive) |

====

# Tested on: Chordin-like protein 2 (CHRDL2)
# Experiment summary: CHRDL2 small-molecule binders, primary screen, biochemical, small-molecule microarray, 635 nm fluorescence (AID 1126);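 further: printed compound slides probed with Chrdl2 protein at 4 µg/mL for 1 h at 4 C; score merges 667 nm emission intensity with signal to noise over three replicate slides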
# Condition description: small-molecule microarray binding, fluorescence 635 nm; higher = more signal
Attribute measured: composite z-score

| Molecule | Attribute measured | Measured value |
| --- | --- | --- |
| C=CC[C@@H]1C=C[C@H](ON=C(C)CCN2CCc3nc(-c4ccccc4)c(-c4ccccc4)cc3C2)[C@@H](CO)O1 | composite z-score | 0.321 |
| CC(C)CON=C1C[C@@H](O)[C@@H](O)[C@@H]2[C@@H]3C(=O)N(C[C@@H]4CCCO4)C(=O)[C@@H]3CC[C@@H]12 | composite z-score | -0.39 |
| CCOC(=O)NN=C1C[C@@H](O)[C@@H](O)[C@@H]2[C@@H]3C(=O)N(c4ccc(F)cc4F)C(=O)[C@@H]3CC[C@@H]12 | composite z-score | 0.312 |
| CO[C@@H]1COC(=O)[C@@H]2CCCN2C(=O)[C@@H](C)COC(=O)CC=C[C@H]1C | composite z-score | 0.695 |
| COc1ccc(O[C@H]2C=C[C@@H](c3ccccc3)O[C@@H]2CON=C(C)C)cc1 | composite z-score | 0.0435 |
| CC(C)CON=C1C[C@@H](O)[C@@H](O)[C@@H]2[C@@H]3C(=O)N(Cc4ccc5c(c4)OCO5)C(=O)[C@@H]3CC[C@H]12 | composite z-score | 0.0987 |
| CO[C@H]1COC(=O)[C@@H](Cc2ccccc2)NC(=O)[C@@H](C)COC(=O)CCC[C@@H]1C | composite z-score | 0.295 |
| Cc1cc2c(nc1C)CCCCN2CC(C)ON=C1[C@H]2CCn3c(=O)n(-c4ccccc4)c(=O)n3[C@H]2[C@H](O)[C@@H]2O[C@H]12 (some centres not stated) | composite z-score | 0.373 |
| C#CCCCON=C1C[C@@H](O)[C@@H](O)[C@@H]2[C@@H]3C(=O)N(C(C)(C)C)C(=O)[C@@H]3CC[C@@H]12 | composite z-score | 0.888 |
| CCCNC(=O)OC[C@H]1O[C@H](CCON=C(C)CCC(=O)OC[C@H]2O[C@H](c3ccccc3)C=C[C@@H]2Oc2ccc(OC)cc2)C=C[C@@H]1Oc1ccc(OC)cc1 | composite z-score | -0.181 |
| CCc1cc2c(nc1CC)CCN(CCC(C)=NOC[C@H]1O[C@H](c3ccccc3)C=C[C@@H]1Oc1ccc(OC)cc1)C2 | composite z-score | -0.0913 |
| O=C1[C@H]2[C@H]3[C@H](O)[C@H](O)CC(=NOCc4ccccc4)[C@@H]3CC[C@H]2C(=O)N1c1ccc(F)cc1F | composite z-score | 0.0594 |
| CC(C)=CCCC(C)=CCON=C1C[C@@H](O)[C@@H](O)[C@@H]2[C@@H]3C(=O)N(C(C)(C)C)C(=O)[C@@H]3CC[C@H]12 | composite z-score | 0.346 |
| CCO[C@H](c1cc(OC)cc([N+](=O)[O-])c1OC)[C@H](C)C=CCC(=O)OC | composite z-score | 0.516 |
| CC(C)CON=C1C[C@@H](O)[C@@H](O)[C@@H]2[C@@H]3C(=O)N(c4ccc(F)cc4F)C(=O)[C@@H]3CC[C@H]12 | composite z-score | 0.554 |
| CCC=CCCC(OC(=O)c1ccc(Br)cc1)C1=CCCCC1=O (configuration not stated) | composite z-score | 1.02 |
| CCOC(=O)[C@H](Cc1ccccc1)NC(=O)CCC1CC(OC(=O)NCCc2ccc(F)cc2)CC2(CCCC(COC(=O)NCCc3ccc(Cl)cc3)O2)O1 (some centres not stated) | composite z-score | 0.38 |
| COC(=O)[C@@H]1CC[C@H](C)[C@@H](c2ccc(C)cc2)N1C(=O)c1ccc(C=NO[C@H](C)c2cn([C@@H]3COC[C@H]3O)nn2)cc1 | composite z-score | 0.389 |
| O=C(NN=C1C[C@@H](O)[C@@H](O)[C@@H]2[C@@H]3C(=O)N(C[C@@H]4CCCO4)C(=O)[C@@H]3CC[C@H]12)OCc1ccccc1 | composite z-score | -0.187 |
| CCOC(=O)[C@H](CC(C)C)NC(=O)CCC1CC(OC(=O)NCCc2ccc(F)cc2)CC2(CCCC(COC(=O)NCC3CCCCC3)O2)O1 (some centres not stated) | composite z-score | 0.618 |
| O=C1[C@H]2[C@H]3[C@H](O)[C@H](O)CC(=NOCc4ccccc4)[C@H]3CC[C@H]2C(=O)N1Cc1ccc2c(c1)OCO2 | composite z-score | 0.408 |
| CC(CCN1CCCCc2nc(C)c(C)cc21)=NOC[C@@H](O)COCc1ccco1 | composite z-score | 1.63 |
